Biological target: Voltage-gated inwardly rectifying potassium channel KCNH2 (Homo sapiens)
Sequence (Q12809 whole entry): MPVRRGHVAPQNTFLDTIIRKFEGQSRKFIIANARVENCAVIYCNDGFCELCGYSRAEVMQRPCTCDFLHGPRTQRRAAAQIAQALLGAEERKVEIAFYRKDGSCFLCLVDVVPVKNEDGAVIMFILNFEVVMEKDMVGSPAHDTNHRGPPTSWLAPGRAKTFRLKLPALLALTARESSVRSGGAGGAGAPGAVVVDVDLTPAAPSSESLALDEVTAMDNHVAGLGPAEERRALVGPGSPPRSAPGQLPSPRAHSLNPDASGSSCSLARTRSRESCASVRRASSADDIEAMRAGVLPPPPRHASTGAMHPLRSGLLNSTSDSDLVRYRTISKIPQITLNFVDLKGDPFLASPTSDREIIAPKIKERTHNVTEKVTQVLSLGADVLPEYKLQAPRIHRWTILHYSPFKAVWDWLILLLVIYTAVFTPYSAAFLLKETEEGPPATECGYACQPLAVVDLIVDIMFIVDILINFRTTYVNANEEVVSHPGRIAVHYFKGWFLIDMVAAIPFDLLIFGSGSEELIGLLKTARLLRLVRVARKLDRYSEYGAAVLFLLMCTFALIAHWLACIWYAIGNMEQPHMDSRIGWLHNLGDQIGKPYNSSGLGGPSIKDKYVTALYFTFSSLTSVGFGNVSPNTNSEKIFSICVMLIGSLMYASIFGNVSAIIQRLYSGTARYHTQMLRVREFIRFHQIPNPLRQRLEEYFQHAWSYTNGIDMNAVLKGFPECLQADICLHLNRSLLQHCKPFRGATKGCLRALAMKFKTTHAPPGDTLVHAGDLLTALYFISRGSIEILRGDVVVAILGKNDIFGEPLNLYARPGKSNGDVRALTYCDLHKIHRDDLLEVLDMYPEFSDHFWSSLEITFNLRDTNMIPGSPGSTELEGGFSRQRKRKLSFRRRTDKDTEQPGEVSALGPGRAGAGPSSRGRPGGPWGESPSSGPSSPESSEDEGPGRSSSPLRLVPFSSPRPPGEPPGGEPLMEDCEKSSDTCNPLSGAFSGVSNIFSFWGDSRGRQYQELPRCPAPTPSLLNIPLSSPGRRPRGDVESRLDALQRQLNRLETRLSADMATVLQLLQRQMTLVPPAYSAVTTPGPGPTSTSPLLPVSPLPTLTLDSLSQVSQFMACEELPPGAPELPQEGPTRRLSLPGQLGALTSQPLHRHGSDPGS
Experiment: Inhibition of human ERG by patch clamp assay

compoundStructureString | IC50 (µM)
C[C@H]1C[C@H](C(=O)O)CC[C@H]1C(=O)N1CC[C@@]2(S(=O)(=O)c3ccccc3)c3cc(F)c(C(F)(C(F)(F)F)C(F)(F)F)cc3CC[C@@H]12 | 18

----------
Experiment: Total AUC in rat at 4 mg/kg, po
Type: ADME, organism-based
Design: time AUCmax, route oral, dose 4 mg/kg
Conditions: in vivo
measurementName: AUC (µM·h)

compoundStructureString | measurementName | readoutNumber
C[C@H]1C[C@H](C(=O)O)CC[C@H]1C(=O)N1CC[C@@]2(S(=O)(=O)c3ccccc3)c3cc(F)c(C(F)(C(F)(F)F)C(F)(F)F)cc3CC[C@@H]12 | AUC | 44

----------
Experiment: Total AUC in rat at 2 mg/kg, iv
Type: ADME, organism-based
Set-up: time AUCmax, route intravenous, dose 2 mg/kg
Conditions: in vivo

compoundStructureString | measureUnit | AUC
C[C@H]1C[C@H](C(=O)O)CC[C@H]1C(=O)N1CC[C@@]2(S(=O)(=O)c3ccccc3)c3cc(F)c(C(F)(C(F)(F)F)C(F)(F)F)cc3CC[C@@H]12 | µM·h | 20

----------
Test: Cmax in Balb/c mouse at 10 mg/kg, po
Type: ADME, organism-based
Parameters: route oral, dose 10 mg/kg
Conditions: in vivo

compoundStructureString | measureUnit | Cmax
N#Cc1cc2c(cc1C(F)(C(F)(F)F)C(F)(F)F)CC[C@H]1N(C(=O)[C@H]3CC[C@H](C(=O)O)CC3)CC[C@@]21S(=O)(=O)c1ccc(F)cc1 | µM | 8.6
O=C(O)[C@H]1CC[C@H](C(=O)N2CC[C@@]3(S(=O)(=O)c4ccc(F)cc4)c4ccc(C(F)(C(F)(F)F)C(F)(F)F)cc4CC[C@@H]23)CC1 | µM | 1.4

----------
Test: Fraction unbound in mouse plasma
Assay type: ADME, cell-free

compoundStructureString | fraction unbound
C[C@H]1C[C@H](C(=O)O)CC[C@H]1C(=O)N1CC[C@@]2(S(=O)(=O)c3ccccc3)c3cc(F)c(C(F)(C(F)(F)F)C(F)(F)F)cc3CC[C@@H]12 | 0.016

----------
Target: UniProt P33261
Sequence (P33261 whole entry): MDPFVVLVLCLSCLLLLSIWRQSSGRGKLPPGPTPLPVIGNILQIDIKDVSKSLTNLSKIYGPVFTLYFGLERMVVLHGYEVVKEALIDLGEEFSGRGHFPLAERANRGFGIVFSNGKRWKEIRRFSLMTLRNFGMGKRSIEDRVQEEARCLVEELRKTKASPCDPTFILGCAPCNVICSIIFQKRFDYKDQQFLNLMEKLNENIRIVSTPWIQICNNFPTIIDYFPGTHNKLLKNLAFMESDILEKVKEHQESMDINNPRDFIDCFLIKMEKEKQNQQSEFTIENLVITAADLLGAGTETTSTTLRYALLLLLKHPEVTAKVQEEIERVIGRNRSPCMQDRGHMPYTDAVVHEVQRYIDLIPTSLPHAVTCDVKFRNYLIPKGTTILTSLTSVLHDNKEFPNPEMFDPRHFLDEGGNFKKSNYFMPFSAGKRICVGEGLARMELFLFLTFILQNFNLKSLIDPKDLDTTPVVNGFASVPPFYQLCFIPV
Test: Inhibition of recombinant CYP2C19 (unknown origin)

compoundStructureString | IC50
C[C@H]1C[C@H](C(=O)O)CC[C@H]1C(=O)N1CC[C@@]2(S(=O)(=O)c3ccccc3)c3cc(F)c(C(F)(C(F)(F)F)C(F)(F)F)cc3CC[C@@H]12 | > 20 µM

----------
Assay: Total AUC in BALB/c mouse at 2 mg/kg, iv
Assay type: ADME, organism-based
Parameters: route intravenous, time AUCmax, dose 2 mg/kg
Details: in vivo

compoundStructureString | AUC, µM·h
C[C@H]1C[C@H](C(=O)O)CC[C@H]1C(=O)N1CC[C@@]2(S(=O)(=O)c3ccccc3)c3cc(F)c(C(F)(C(F)(F)F)C(F)(F)F)cc3CC[C@@H]12 | 20

----------
Assay: Total AUC in dog at 1 mg/kg, iv
Type: ADME, organism-based, Canis lupus familiaris
Design: route intravenous, time AUCmax, dose 1 mg/kg
Conditions: in vivo

compoundStructureString | measureUnit | AUC
C[C@H]1C[C@H](C(=O)O)CC[C@H]1C(=O)N1CC[C@@]2(S(=O)(=O)c3ccccc3)c3cc(F)c(C(F)(C(F)(F)F)C(F)(F)F)cc3CC[C@@H]12 | µM·h | 80

The values you see were collected from ChEMBL document CHEMBL4699477.
